activation at 1 µM values for the compounds below.
system: glucocerebrosidase (Gcase) (Homo sapiens, UniProt P04062)
Construct: micellar solution containing 10 nM GCase and 100 nM saposin C (Enzo ALX-201-262-C050)
Sequence (P04062 40-536): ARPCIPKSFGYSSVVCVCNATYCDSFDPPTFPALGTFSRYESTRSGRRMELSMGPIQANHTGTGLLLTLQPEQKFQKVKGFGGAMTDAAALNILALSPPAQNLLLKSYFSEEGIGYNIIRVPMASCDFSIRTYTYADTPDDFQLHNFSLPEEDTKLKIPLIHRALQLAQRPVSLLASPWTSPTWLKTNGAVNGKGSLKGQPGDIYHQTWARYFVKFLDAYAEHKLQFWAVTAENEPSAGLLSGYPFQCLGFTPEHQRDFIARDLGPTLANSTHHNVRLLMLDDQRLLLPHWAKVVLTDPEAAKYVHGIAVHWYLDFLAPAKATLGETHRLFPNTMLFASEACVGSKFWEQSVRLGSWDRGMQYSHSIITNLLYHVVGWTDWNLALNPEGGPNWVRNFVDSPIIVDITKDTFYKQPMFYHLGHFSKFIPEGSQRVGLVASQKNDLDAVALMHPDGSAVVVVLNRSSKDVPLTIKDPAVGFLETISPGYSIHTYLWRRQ
assayMethodText: Glucocerebrosidase (Gcase) activation assay, 4-methylumbelliferyl-beta-D-glucopyranoside substrate, with saposin C
Type: biochemical
cond: read-out: Percent Gcase Activation 1 μM Test Compound

Look over these answered cases.
compound	activation at 1 µM
Cc1csc2ncc(C(=O)Nc3ccc(N(C)C)cc3)c(=O)n12	5 to 20%
O=C(NC1CCc2ccccc21)c1cnc2n(c1=O)CCS2 (centres unmarked)	5 to 20%
Cc1cccc2ncc(C(=O)NC3CCc4ccccc43)c(=O)n12 (centres unmarked)	> 20%
O=C(NC1CCc2ccccc2C1)c1cnc2n(c1=O)CCS2 (centres unmarked)	5 to 20%
O=C(NC1CCCC2(CCCCO2)C1)c1cnc2n(c1=O)CCS2 (centres unmarked)	< 5%

Query: Item CCC(C)c1ccc(NC(=O)c2cnc3sccn3c2=O)cc1 (centres unmarked) with glucocerebrosidase (Gcase) (Homo sapiens, UniProt P04062) - activation at 1 µM?
Response: > 20%

Query: Next compound: Cc1cccc2ncc(C(=O)NC3CC4CCC3C4)c(=O)n12 (centres unmarked)
Response: 5 to 20%

Measured values drawn from patent US20190112316A1 for this set.
